// data source = patent US20260242735A1

- testedOn: human CD33 K215A (human, UniProt P20138 18-364)
- Sequence (P20138 18-364 K215A limits assumed): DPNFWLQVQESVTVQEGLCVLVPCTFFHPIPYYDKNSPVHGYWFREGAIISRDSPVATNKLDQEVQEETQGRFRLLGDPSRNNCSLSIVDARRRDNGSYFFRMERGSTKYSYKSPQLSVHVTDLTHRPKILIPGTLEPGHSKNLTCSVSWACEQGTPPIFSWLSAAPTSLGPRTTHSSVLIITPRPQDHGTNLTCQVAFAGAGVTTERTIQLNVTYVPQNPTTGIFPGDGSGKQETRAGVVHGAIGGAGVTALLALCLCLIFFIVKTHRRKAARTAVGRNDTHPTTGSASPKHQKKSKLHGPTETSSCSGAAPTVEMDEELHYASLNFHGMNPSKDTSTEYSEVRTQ
- assayProcedure: alanine scan, flow cytometry, HEK293-T;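 further: antibody binding to each alanine-substituted CD33 mutant expressed transiently in HEK293-T, read as fluorescence minus background, mean of duplicates, relative to wild-type CD33 set as 100%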
Please provide measured Mean % WT Binding for the entries that follow.
Report the figure in % without appending any unit label.

Entry under test: Refmab #1 (antibody, V domains shown, In the alanine scan antibodies were used as IgG or Fab; also called hP67.6) VH: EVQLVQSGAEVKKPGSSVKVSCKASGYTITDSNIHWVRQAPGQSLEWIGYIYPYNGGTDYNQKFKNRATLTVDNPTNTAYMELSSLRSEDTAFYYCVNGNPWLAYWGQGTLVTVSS VL: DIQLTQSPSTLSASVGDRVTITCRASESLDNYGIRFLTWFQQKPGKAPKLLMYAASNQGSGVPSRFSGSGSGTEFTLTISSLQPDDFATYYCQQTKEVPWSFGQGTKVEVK . Its Mean % WT Binding was 84.5

Entry under test: Refmab #3 (antibody, V domains shown, In the alanine scan antibodies were used as IgG or Fab) VH: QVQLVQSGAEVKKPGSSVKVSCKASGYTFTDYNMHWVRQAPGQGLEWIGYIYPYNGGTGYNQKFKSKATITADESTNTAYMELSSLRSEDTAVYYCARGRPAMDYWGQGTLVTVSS VL: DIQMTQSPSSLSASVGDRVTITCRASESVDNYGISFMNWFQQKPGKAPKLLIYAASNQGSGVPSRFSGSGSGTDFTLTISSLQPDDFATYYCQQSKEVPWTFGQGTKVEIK . Its Mean % WT Binding was 79.8

Entry under test: Refmab #2 (antibody, V domains shown, In the alanine scan antibodies were used as IgG or Fab) VH: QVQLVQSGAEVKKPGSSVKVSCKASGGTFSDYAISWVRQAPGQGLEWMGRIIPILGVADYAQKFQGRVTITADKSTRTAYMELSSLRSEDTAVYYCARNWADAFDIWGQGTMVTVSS VL: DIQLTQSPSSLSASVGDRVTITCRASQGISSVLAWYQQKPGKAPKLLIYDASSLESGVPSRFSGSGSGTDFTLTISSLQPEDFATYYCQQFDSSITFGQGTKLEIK . Its Mean % WT Binding was 98.4

Entry under test: Refmab #4 (antibody, V domains shown, In the alanine scan antibodies were used as IgG or Fab) VH: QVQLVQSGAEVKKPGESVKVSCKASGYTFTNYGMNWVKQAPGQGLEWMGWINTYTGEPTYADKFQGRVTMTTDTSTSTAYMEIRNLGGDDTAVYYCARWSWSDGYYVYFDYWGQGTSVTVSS VL: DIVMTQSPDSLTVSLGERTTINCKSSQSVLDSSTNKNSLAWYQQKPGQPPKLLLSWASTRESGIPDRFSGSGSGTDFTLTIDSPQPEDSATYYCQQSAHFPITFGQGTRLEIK . Its Mean % WT Binding was 96.7
